Cited source: PubChem BioAssay AID1421

# Target under test: Prostaglandin E2 receptor EP2 subtype (Homo sapiens)
# Procedure text: compounds shifting PGE2 potency at EP2 – cell-based, human EP2, PGE2 EC50 shift, dose response (AID 1421)
# Condition info: EP2-expressing cells, PGE2 EC50 shift by compound; at 20 µM
About 140 (11%) of roughly 1,300 compounds were called active. The list is a sample of the results. Results with a measured potency or affinity are listed apart.
# PGE2 EC50 with compound values compiled below

Example entries begin here.
Cc1cc(NC(=O)c2cc(-c3ccncc3)nc3c(C)cccc23)no1 :: 0.92 nM (inactive)
CCOC(=O)c1cnc2ccc(OCC)cc2c1N(C)Cc1ccccc1 :: 0.07 nM (inactive)
Cc1ccc(C(C)C)c(OCCn2c(=O)oc3ccccc32)c1 :: 0.33 nM (inactive)
CC(C)Oc1ccc(/C=C(/NC(=O)c2ccccc2)C(=O)NCCC(=O)O)cc1 :: 0.98 nM (inactive)
CCC1C/C(=C/c2ccco2)C(=O)/C(=C/c2ccco2)C1 (centres undefined) :: 0.69 nM (inactive)

Report PGE2 EC50 with compound under test system Prostaglandin E2 receptor EP2 subtype (Homo sapiens) for "CC(C)Cc1nc2sc3c(=O)[nH]cnc3c2c2c1CCC2" .
0.65 nM (inactive)

Report PGE2 EC50 with compound under test system Prostaglandin E2 receptor EP2 subtype (Homo sapiens) for "Cc1cc2ccccc2nc1SCC(=O)NC1CCCCC1" .
1.22 nM (inactive)

Report PGE2 EC50 with compound under test system Prostaglandin E2 receptor EP2 subtype (Homo sapiens) for "CCCCOc1ccccc1NC(=O)c1scc2c1OCCO2" .
0.31 nM (inactive)

Report PGE2 EC50 with compound under test system Prostaglandin E2 receptor EP2 subtype (Homo sapiens) for O=C(c1ccccc1)N1N=C(c2ccccc2)CC1c1ccccc1O (centres undefined) .
0.27 nM (inactive)

Report PGE2 EC50 with compound under test system Prostaglandin E2 receptor EP2 subtype (Homo sapiens) for "O=C(Nc1cccc(Cl)c1N1CCCCC1)c1ccc2c(c1)OCCO2" .
0.26 nM (inactive)

Report PGE2 EC50 with compound under test system Prostaglandin E2 receptor EP2 subtype (Homo sapiens) for "O=C(Nc1ccc2c(c1)OCO2)c1cccc2c1C(=O)N(C1CCCCC1)C2" .
0.58 nM (inactive)

Report PGE2 EC50 with compound under test system Prostaglandin E2 receptor EP2 subtype (Homo sapiens) for "COc1ccc(C2=Nn3c(nnc3C3CCCCC3)SC2)cc1OC" .
0.48 nM (inactive)

Report PGE2 EC50 with compound under test system Prostaglandin E2 receptor EP2 subtype (Homo sapiens) for "Cc1cc(C)c2nc(N3CCCN(C(=O)c4ccco4)CC3)c(C#N)cc2c1" .
0.66 nM (inactive)

Report PGE2 EC50 with compound under test system Prostaglandin E2 receptor EP2 subtype (Homo sapiens) for "CCC(=O)N1CCN(c2nc(-c3ccccc3)c3c(c2C#N)CCCC3)CC1" .
0.31 nM (inactive)

Report PGE2 EC50 with compound under test system Prostaglandin E2 receptor EP2 subtype (Homo sapiens) for "Cc1ccc2nc(N3CCC(C(=O)O)CC3)nc(-c3ccccc3)c2c1" .
0.5 nM (inactive)

Report PGE2 EC50 with compound under test system Prostaglandin E2 receptor EP2 subtype (Homo sapiens) for "C=CCn1c(=O)c(C(=O)NCCc2ccccc2)c(O)c2ccccc21" .
0.5 nM (inactive)

Report PGE2 EC50 with compound under test system Prostaglandin E2 receptor EP2 subtype (Homo sapiens) for "Cc1sc2ncnc(N(C)Cc3cccs3)c2c1C" .
0.78 nM (inactive)

Report PGE2 EC50 with compound under test system Prostaglandin E2 receptor EP2 subtype (Homo sapiens) for "C#CCn1c(S(=O)(=O)Cc2ccc(F)cc2)nc(-c2ccccc2)c1-c1ccccc1" .
0.37 nM (inactive)

Report PGE2 EC50 with compound under test system Prostaglandin E2 receptor EP2 subtype (Homo sapiens) for "CCOC(=O)c1c(NC(=O)CSc2nnnn2CC)sc(C)c1C" .
0.73 nM (inactive)
